Ref: patent US20250361322A1

Hi there, I'd appreciate the recorded pKd for every entry that follows.
Target: T1, cynomolgus monkey TF ECD-His6 (cynomolgus monkey (Macaca fascicularis))
T1 construct: Expi293-derived; also called TF-His; cTF
T1 chain: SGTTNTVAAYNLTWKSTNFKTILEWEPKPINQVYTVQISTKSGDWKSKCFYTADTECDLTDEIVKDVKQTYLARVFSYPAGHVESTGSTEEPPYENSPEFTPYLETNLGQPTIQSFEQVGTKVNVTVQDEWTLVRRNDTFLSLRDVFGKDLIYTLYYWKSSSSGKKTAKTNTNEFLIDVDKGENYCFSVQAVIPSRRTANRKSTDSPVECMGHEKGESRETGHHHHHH
Test: SPR (Biacore), TF-His over coupled antibody
Scale note: pKd = -log10(concentration in M).

// query pKd value for entry 25G1 (antibody, human IgG1, V domains shown, Human IgG1; also called antibody designated 25G1) VH: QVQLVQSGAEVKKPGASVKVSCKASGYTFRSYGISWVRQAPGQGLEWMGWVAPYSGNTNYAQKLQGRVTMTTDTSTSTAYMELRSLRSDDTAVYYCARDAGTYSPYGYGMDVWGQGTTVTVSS VL: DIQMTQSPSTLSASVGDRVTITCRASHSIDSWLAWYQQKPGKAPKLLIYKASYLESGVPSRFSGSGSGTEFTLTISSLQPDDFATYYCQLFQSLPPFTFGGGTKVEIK 9.11

Looking for the measured pKd of 25G9 (antibody, human IgG1, V domains shown, Human IgG1; also called antibody designated 25G9) VH: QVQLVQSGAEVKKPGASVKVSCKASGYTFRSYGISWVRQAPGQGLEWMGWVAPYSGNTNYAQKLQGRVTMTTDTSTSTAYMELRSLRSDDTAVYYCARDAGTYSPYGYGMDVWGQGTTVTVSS VL: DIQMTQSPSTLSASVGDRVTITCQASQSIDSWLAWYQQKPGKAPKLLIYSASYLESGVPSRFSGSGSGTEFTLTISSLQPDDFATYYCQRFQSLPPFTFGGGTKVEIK , can you help? 7.79

What value of pKd has been reported for the following binder? 25A5 (antibody, human IgG1, V domains shown, Human IgG1; also called antibody designated 25A5) VH: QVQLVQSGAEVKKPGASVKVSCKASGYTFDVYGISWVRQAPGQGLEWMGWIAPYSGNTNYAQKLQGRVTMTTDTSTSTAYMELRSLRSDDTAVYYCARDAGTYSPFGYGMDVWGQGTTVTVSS VL: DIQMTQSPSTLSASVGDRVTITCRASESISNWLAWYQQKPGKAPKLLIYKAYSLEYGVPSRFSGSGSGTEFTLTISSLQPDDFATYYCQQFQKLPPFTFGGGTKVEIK 10.40
